Measured IC50 of individual entries
- STUDY SYSTEM: T1, myc-tagged rat B2R construction (rat, UniProt P25023 1-396)
- T1 construct: bradykinin B2 receptor, rat; also called rat myc-B2R; rat recombinant myc-B2R; source: HEK 293 cells stably expressing the construction, adherent intact cells
- T1 sequence (looked up): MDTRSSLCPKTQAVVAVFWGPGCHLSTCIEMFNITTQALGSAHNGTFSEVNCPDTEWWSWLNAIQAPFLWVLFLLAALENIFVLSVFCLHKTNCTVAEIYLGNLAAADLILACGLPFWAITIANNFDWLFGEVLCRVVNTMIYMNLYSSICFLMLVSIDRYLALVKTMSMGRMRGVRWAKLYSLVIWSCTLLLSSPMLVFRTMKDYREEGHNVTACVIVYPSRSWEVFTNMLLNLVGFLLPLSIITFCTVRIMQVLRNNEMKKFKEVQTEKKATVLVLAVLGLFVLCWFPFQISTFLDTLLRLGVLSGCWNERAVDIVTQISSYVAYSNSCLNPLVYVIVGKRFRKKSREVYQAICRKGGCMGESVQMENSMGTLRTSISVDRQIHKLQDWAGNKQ
- PROTOCOL SUMMARY: radioligand binding; competition of the binding of 3 nM [^3H]BK to adherent intact HEK 293 cells stably expressing myc-tagged rat B2R by unlabeled peptides; 0°C; peptidase inhibitors including captopril and PMSF; one-site competition fit
- MEASUREMENT CONTEXT: one partner purified
Square brackets hold non-standard residues; d marks the D form. Ends that are not written are not given here.

# BINDER, IC50 (µM)
measured = [
    ("[dR]RPPGFSPFRRR (D-Arg^0, N-terminal extension (a D-residue); bradykinin, whole nonapeptide; Arg-Arg, C-terminal extension; also called r-BK-RR; D-Arg^0-Bradykinin-Arg-Arg; source: synthetic peptide (CanPeptide, Inc., solid-phase, ≥98.3% pure)) [D-Arg^0-BK-Arg-Arg]", 1.05),
    ("[dR]RPPGFSPFR (D-Arg^0, N-terminal extension (a D-residue); bradykinin, whole nonapeptide; also called r-BK; D-Arg^0-bradykinin; source: synthetic peptide (CanPeptide, Inc., solid-phase, ≥98.3% pure)) [D-Arg^0-BK]", 0.0133),
]
